# EXPERIMENTAL DETAILS: BIC plasma pharmacokinetics, Phase 1 open-label single-dose DDI study GS-US-380-3909 (B/F/TAF 50/200/25 mg with antacid or mineral supplements)
# Type: in vivo, human
# APPLIED CONDITIONS: both sexes, human, plasma, oral, BIC VZ/F, mean (%CV), Cohort 1 fasted; B/F/TAF + aluminum/magnesium-containing antacid simultaneous; N = 14
TEST READOUT: Vd/F (L)
Numbers only, in L.

Request the reported Vd/F associated with O=C(NCc1c(F)cc(F)cc1F)c1cn2c(c(O)c1=O)C(=O)N1[C@H]3CC[C@H](C3)O[C@@H]1C2 [BIC, bictegravir]
61.4

----------
# EXPERIMENTAL DETAILS: BIC plasma pharmacokinetics, Phase 1 open-label single-dose DDI study GS-US-380-3909 (B/F/TAF 50/200/25 mg with antacid or mineral supplements)
# Format: in vivo, human
# APPLIED CONDITIONS: both sexes, human, plasma, oral, BIC plasma AUClast, mean (%CV), Cohort 3 fed; B/F/TAF + aluminum/magnesium-containing antacid simultaneous; N = 14
TEST READOUT: AUC(0-t) (ng·h/mL)
Answers are plain numbers, in ng·h/mL.

Request the reported AUC(0-t) associated with O=C(NCc1c(F)cc(F)cc1F)c1cn2c(c(O)c1=O)C(=O)N1[C@H]3CC[C@H](C3)O[C@@H]1C2 [BIC, bictegravir]
49200

----------
# EXPERIMENTAL DETAILS: BIC plasma pharmacokinetics, Phase 1 open-label single-dose DDI study GS-US-380-3909 (B/F/TAF 50/200/25 mg with antacid or mineral supplements)
# Type: in vivo, human
# APPLIED CONDITIONS: both sexes, human, plasma, oral, BIC VZ/F, mean (%CV), Cohort 2 fasted; B/F/TAF 2 hours after aluminum/magnesium-containing antacid; N = 13
TEST READOUT: Vd/F (L)
One number for each entry, in L.

Request the reported Vd/F associated with O=C(NCc1c(F)cc(F)cc1F)c1cn2c(c(O)c1=O)C(=O)N1[C@H]3CC[C@H](C3)O[C@@H]1C2
31.2

----------
# EXPERIMENTAL DETAILS: BIC plasma pharmacokinetics, Phase 1 open-label single-dose DDI study GS-US-380-3909 (B/F/TAF 50/200/25 mg with antacid or mineral supplements)
# Format: in vivo, human
# APPLIED CONDITIONS: both sexes, human, plasma, oral, Cohort 3 fed; B/F/TAF with ferrous fumarate simultaneous; N = 14; read-out: AUCinf, test GLSM
TEST READOUT: AUC(0-inf) (ng·h/mL)
One number for each entry, in ng·h/mL.

Request the reported AUC(0-inf) associated with O=C(NCc1c(F)cc(F)cc1F)c1cn2c(c(O)c1=O)C(=O)N1[C@H]3CC[C@H](C3)O[C@@H]1C2
75400

----------
# EXPERIMENTAL DETAILS: BIC plasma pharmacokinetics, Phase 1 open-label single-dose DDI study GS-US-380-3909 (B/F/TAF 50/200/25 mg with antacid or mineral supplements)
# Assay type: in vivo, human
# APPLIED CONDITIONS: both sexes, human, plasma, oral, BIC plasma C24, mean (%CV), Cohort 3 fed; B/F/TAF + ferrous fumarate simultaneous; N = 14
TEST READOUT: concentration at 24 h (ng/mL)
Answers are plain numbers, in ng/mL.

Request the reported concentration at 24 h associated with O=C(NCc1c(F)cc(F)cc1F)c1cn2c(c(O)c1=O)C(=O)N1[C@H]3CC[C@H](C3)O[C@@H]1C2
1230
